Multiple publications report pIC50 for Serine/threonine-protein kinase mTOR (Homo sapiens, UniProt P42345); what follows is a combined list.
pIC50: −log10 of the molar value.

- compound: "CC(C)Cn1c(N2CCN(C(=O)CN(C)C)CC2)nc2c(N3CCOCC3)nc(-c3cnc(N)nc3)nc21"
  experimental target: "Serine/threonine-protein kinase mTOR (Homo sapiens, UniProt P42345)"
  pIC50: "7.00 to 7.52"

Fill in: pIC50 of CN(C)Cc1ccc(-c2ccc3c(N4CCOCC4)nc(-c4ccc(NC(=O)Nc5ccc(C(=O)N(C)C)cc5)cc4)nc3c2)o1 is ___
> 7.30

What measured pIC50 goes with CC(c1ccccc1)n1cnc2c(-c3cccc4[nH]ccc34)nc(N3CCOCC3)nc21 (stereo not shown) ?
> 6.00

Record request: pIC50 value, item Cc1ncc(-c2ccc3ncc4c(c3c2)n(-c2cn(C)nc2C)c(=O)n4C)cc1OC(C)C
8.40

Given the compound O=c1[nH]c2ncc(-c3cnc4[nH]ccc4c3)cc2n1C[C@H]1CC[C@@H](O)CC1 , what is its reported pIC50?
> 7.30

Need pIC50, item CC(C)(C#N)c1ccc(-c2nnc3cnc4ccc(-c5cnc(N)c(F)c5)cc4n23)cc1
> 7.00

Form field: reported pIC50 of CN1C(=O)COC[C@@H]1Cn1c(=O)[nH]c2ncc(-c3cnc4[nH]ccc4c3)cc21
> 7.30

Any idea what pIC50 was measured for CN(C)CCNc1nc2c(N3CCOCC3)nc(-c3cnc(N)nc3)nc2n1CC1CC1 ?
6.30 to 7.00

Fill in the blank: the reported pIC50 of COc1cc(-c2cnc3[nH]c(=O)n(CC4CCOCC4)c3n2)cc(OC)c1OC is ____.
5.30 to 7.00

Report pIC50 for CCn1cc(-n2c(=O)n(C)c3cnc4ccc(-c5cnc(NC)c(COC)c5)cc4c32)c(C)n1 please.
7.82

Return reported pIC50; argument: C[C@H]1COCCN1c1nc(-c2ccc(NC(=O)NC3COC3)cc2)nc2c1CS(=O)(=O)C2(C)C
6.00 to 7.00

* * *

pIC50: −log10 of the molar value.
Literature roundup of Serine/threonine-protein kinase mTOR (Homo sapiens) data, read-out pIC50.

- structure smiles string: "Oc1cccc(-c2nc(N3CCOCC3)nc3c2ncn3C2CCNCC2)c1"
  pIC50: "> 6.00"
- structure smiles string: "O=S(=O)(CCCF)Nc1cccc(-c2ccc3nc(-c4cccc5[nH]ncc45)nc(N4CCOCC4)c3n2)c1F"
  pIC50: "6.00 to 7.00"
- structure smiles string: "Cc1ccc(-c2ccc3c(N4CCOCC4)nc(-c4ccc(NC(=O)Nc5ccc(C(=O)N6CCC(N(C)C)CC6)cc5)cc4)nc3c2)o1"
  pIC50: "6.70 to 7.30"

State the recorded pIC50 for this entry: Cc1nn(C)cc1-n1c(=O)n(C)c2cnc3ccc(-c4cncc(C5(O)CCCC5)c4)cc3c21
7.39

Please give the measured pIC50 for this compound: COc1ncc(-c2ccc3ncc4c(c3c2)n(C)c(=O)n4C)cc1NS(=O)(=O)c1ccc(F)cc1F
> 7.00

Param item = COCCNc1ccc(-c2nc(N3CCOCC3)c3nc(-c4cccc(NS(=O)(=O)CCCF)c4F)ccc3n2)cn1 ; retrieve measured pIC50.
6.00 to 7.00

I'd like to know its pIC50. The compound in question is N#Cc1c(-c2cnc3[nH]c(=O)n(CC4CCOCC4)c3c2)cnc2[nH]ccc12
5.30 to 7.00
